Assay: Acute cytotoxicity was evaluated as LD50 in mice (ip)
Assay type: organism-based
Settings: mouse, in vivo
Criterion: LD50 strictly less than 200 mg/kg. Met: class 1. Not met: class 0.

                           molecule  classification
0  Cn1nc(-c2ccc(Cl)c(Cl)c2)n(C)c1=S         class 0
1              Cn1c(S)nnc1-c1ccccc1         class 0
2    Cn1nc(-c2cccc3ccccc23)n(C)c1=S         class 0
3          Cn1nc(-c2ccccc2)n(C)c1=O         class 0
4                 C#CCN(C)Cc1ccccc1         class 0
5    Cn1nc(-c2c(Cl)cccc2Cl)n(C)c1=S         class 0
6     CCn1c(-c2ccc(Cl)cc2)nn(C)c1=S         class 0
7     CCn1nc(-c2ccc(Cl)cc2)n(C)c1=S         class 0
8       CNCCC=C1c2ccccc2CCc2ccccc21         class 1
9          Cn1nc(-c2ccccc2)n(C)c1=S         class 1

Item Cc1ccc(-c2nn(C)c(=S)n2C)cc1 : LD50 beneath 200 mg/kg, strictly? class 0

Item CNCCCC1c2ccccc2C=Cc2ccccc21 : LD50 beneath 200 mg/kg, strictly? class 1

Item CNCCCN1c2ccccc2CCc2ccccc21 : LD50 beneath 200 mg/kg, strictly? class 1

Item Sc1n[nH]c(-c2ccc(Cl)cc2)n1 : LD50 beneath 200 mg/kg, strictly? class 0

Item Cn1c(S)nnc1-c1ccc(Cl)cc1 : LD50 beneath 200 mg/kg, strictly? class 0

Item Cn1c(S)nnc1-c1ccccc1F : LD50 beneath 200 mg/kg, strictly? class 0
